Biological target: LIFR (Homo sapiens, UniProt P42702)
Construct: expressed in transfected cells; host or cells: HepG2
Sequence (P42702 45-1097): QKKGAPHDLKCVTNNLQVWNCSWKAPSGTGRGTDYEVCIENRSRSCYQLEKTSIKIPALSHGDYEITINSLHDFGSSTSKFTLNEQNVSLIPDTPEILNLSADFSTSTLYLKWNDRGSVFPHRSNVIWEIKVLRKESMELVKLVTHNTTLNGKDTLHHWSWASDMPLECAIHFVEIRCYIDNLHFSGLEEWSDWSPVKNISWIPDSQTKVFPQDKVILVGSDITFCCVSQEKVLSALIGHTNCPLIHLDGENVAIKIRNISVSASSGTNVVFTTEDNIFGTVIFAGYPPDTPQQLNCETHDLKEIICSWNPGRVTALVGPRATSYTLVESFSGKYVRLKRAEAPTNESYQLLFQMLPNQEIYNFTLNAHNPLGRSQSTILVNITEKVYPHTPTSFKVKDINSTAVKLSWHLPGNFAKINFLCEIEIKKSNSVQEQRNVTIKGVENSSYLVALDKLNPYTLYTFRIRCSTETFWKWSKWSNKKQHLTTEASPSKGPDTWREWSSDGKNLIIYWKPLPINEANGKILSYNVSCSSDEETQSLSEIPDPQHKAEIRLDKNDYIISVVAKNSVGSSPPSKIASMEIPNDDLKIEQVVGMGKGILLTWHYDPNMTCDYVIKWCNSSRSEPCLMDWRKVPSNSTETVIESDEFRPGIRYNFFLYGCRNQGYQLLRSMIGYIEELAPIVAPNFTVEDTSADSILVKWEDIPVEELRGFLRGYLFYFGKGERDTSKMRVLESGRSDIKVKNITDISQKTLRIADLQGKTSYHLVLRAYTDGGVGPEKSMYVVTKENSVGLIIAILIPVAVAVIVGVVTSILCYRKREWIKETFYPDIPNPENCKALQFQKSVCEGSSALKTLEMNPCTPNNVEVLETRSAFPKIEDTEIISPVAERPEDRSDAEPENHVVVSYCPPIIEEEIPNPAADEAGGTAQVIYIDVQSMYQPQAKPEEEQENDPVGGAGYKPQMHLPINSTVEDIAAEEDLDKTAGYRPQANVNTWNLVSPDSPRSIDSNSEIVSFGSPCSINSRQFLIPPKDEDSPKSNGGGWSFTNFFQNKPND
Assay: Luciferase reporter (transactivation) assay on HepG2 cells transfected with LIFR
Format: cell-based
Settings: relative to LIF as 100%, mean ± SD
Each entry falls into one class according to its inhibition at 10 µM; the ranges are bin A: < 50%; bin B: ≥ 50% and < 90%; bin C: ≥ 90%

Molecule: C[C@]12C[C@H](c3ccccc3)C3=C4CCC(=O)C=C4CC[C@H]3[C@@H]1CCC2=O [Compound 1c, 11β-Phenylestra-4,9-dien-3,17-dione]
Assigned label: bin B
--
Molecule: C[C@]12C[C@H](Cc3ccc(O)cc3)C3=C4CCC(=O)C=C4CC[C@H]3[C@@H]1CCC2=O [Compound 1e]
Assigned label: bin A
--
Molecule: COC(=O)c1cccc(-c2ccc([C@H]3C[C@]4(C)C(=O)CC[C@H]4[C@@H]4CCC5=CC(=O)CCC5=C43)cc2)c1 [Compound 2s]
Assigned label: bin B
--
Molecule: C[C@]12C[C@H](c3ccc(-c4ccccc4)cc3)C3=C4CCC(=O)C=C4CC[C@H]3[C@@H]1CCC2=O [Compound 1a]
Assigned label: bin A
--
Molecule: CN(C)c1ccc([C@H]2C[C@]3(C)C(=O)CC[C@H]3[C@@H]3CCC4=CC(=O)CCC4=C32)cc1 [Compound 1b]
Assigned label: bin C
--
Molecule: C[C@]12C[C@H](c3ccc(-c4cccc(C(=O)O)c4)cc3)C3=C4CCC(=O)C=C4CC[C@H]3[C@@H]1CCC2=O [Compound 2t]
Assigned label: bin A

----------
target: LIF-LIFR interaction (recombinant human LIFR His-Tag / biotinylated LIF) (Homo sapiens); construct: purchased Sino Biological (LIFR); R&D Systems (LIF); assay: Cell-free AlphaScreen assay of LIF-LIFR interaction; assay type: binding; conditions: inhibition of LIF-LIFR interaction; ± SD; read-out: IC50
pIC50: −log10 of the molar value.
Measured property: pIC50

Molecule: CC#C[C@]1(O)CC[C@H]2[C@@H]3CCC4=CC(=O)CCC4=C3[C@@H](c3ccc(N(C)C)cc3)C[C@@]21C [Mifepristone, mifepristone, reference compound]
Measured property: pIC50
Number: 6.44

----------
target: LIF-LIFR interaction (recombinant human LIFR His-Tag / biotinylated LIF) (Homo sapiens); construct: purchased Sino Biological (LIFR); R&D Systems (LIF); assay: Cell-free AlphaScreen assay of LIF-LIFR interaction; type: binding
pIC50: −log10 of the molar value.
# pIC50 per entry

Sample smiles: C[C@]12C[C@H](c3ccccc3)C3=C4CCC(=O)C=C4CC[C@H]3[C@@H]1CCC2=O
Target desc: LIF-LIFR interaction (recombinant human LIFR His-Tag / biotinylated LIF) (Homo sapiens)
pIC50: 4.57

Sample smiles: C[C@]12C[C@H](c3ccc(-c4ccc(Br)nc4)cc3)C3=C4CCC(=O)C=C4CC[C@H]3[C@@H]1CCC2=O
Target desc: LIF-LIFR interaction (recombinant human LIFR His-Tag / biotinylated LIF) (Homo sapiens)
pIC50: 5.26

Sample smiles: C[C@]12C[C@H](Cc3ccc(O)cc3)C3=C4CCC(=O)C=C4CC[C@H]3[C@@H]1CCC2=O
Target desc: LIF-LIFR interaction (recombinant human LIFR His-Tag / biotinylated LIF) (Homo sapiens)
pIC50: 4.34

Sample smiles: C[C@]12C[C@H](c3ccc(I)cc3)C3=C4CCC(=O)C=C4CC[C@H]3[C@@H]1CCC2=O
Target desc: LIF-LIFR interaction (recombinant human LIFR His-Tag / biotinylated LIF) (Homo sapiens)
pIC50: 5.01

Sample smiles: C[C@]12C[C@H](c3ccc(-c4ccccc4)cc3)C3=C4CCC(=O)C=C4CC[C@H]3[C@@H]1CCC2=O
Target desc: LIF-LIFR interaction (recombinant human LIFR His-Tag / biotinylated LIF) (Homo sapiens)
pIC50: 5.85

Sample smiles: C[C@]12C[C@H](c3ccc(C4CC4)cc3)C3=C4CCC(=O)C=C4CC[C@H]3[C@@H]1CCC2=O
Target desc: LIF-LIFR interaction (recombinant human LIFR His-Tag / biotinylated LIF) (Homo sapiens)
pIC50: 5.03

Sample smiles: COc1ccc(C[C@H]2C[C@]3(C)C(=O)CC[C@H]3[C@@H]3CCC4=CC(=O)CCC4=C23)cc1
Target desc: LIF-LIFR interaction (recombinant human LIFR His-Tag / biotinylated LIF) (Homo sapiens)
pIC50: 4.37

Sample smiles: CN(C)c1ccc([C@H]2C[C@]3(C)C(=O)CC[C@H]3[C@@H]3CCC4=CC(=O)CCC4=C32)cc1
Target desc: LIF-LIFR interaction (recombinant human LIFR His-Tag / biotinylated LIF) (Homo sapiens)
pIC50: 6.27

Sample smiles: COC(=O)c1cccc(-c2ccc([C@H]3C[C@]4(C)C(=O)CC[C@H]4[C@@H]4CCC5=CC(=O)CCC5=C43)cc2)c1
Target desc: LIF-LIFR interaction (recombinant human LIFR His-Tag / biotinylated LIF) (Homo sapiens)
pIC50: 6.80

Sample smiles: C[C@]12C[C@H](c3ccc(-c4cccc(C(=O)O)c4)cc3)C3=C4CCC(=O)C=C4CC[C@H]3[C@@H]1CCC2=O
Target desc: LIF-LIFR interaction (recombinant human LIFR His-Tag / biotinylated LIF) (Homo sapiens)
pIC50: 4.61

----------
target: LIF-LIFR interaction (recombinant human LIFR His-Tag / biotinylated LIF) (Homo sapiens, UniProt P42702); construct: purchased Sino Biological (LIFR); R&D Systems (LIF); experiment: Cell-free AlphaScreen assay of LIF-LIFR interaction; format: binding; settings: read-out: % LIFR inhibition (50 μM)
Classification field: enter T for inhibition at 50 µM values not below 60%, F for values below it.

Compound: C[C@]12C[C@H](Cc3ccc(O)cc3)C3=C4CCC(=O)C=C4CC[C@H]3[C@@H]1CCC2=O [Compound 1e]
Assigned label: F
--
Compound: C[C@]12C[C@H](c3ccc(-c4cccc(C(=O)O)c4)cc3)C3=C4CCC(=O)C=C4CC[C@H]3[C@@H]1CCC2=O [Compound 2t]
Assigned label: T
--
Compound: COc1ccc(C[C@H]2C[C@]3(C)C(=O)CC[C@H]3[C@@H]3CCC4=CC(=O)CCC4=C23)cc1 [Compound 1d]
Assigned label: F
--
Compound: C[C@]12C[C@H](c3ccc(-c4ccc(Br)nc4)cc3)C3=C4CCC(=O)C=C4CC[C@H]3[C@@H]1CCC2=O [Compound 2d]
Assigned label: T
--
Compound: COC(=O)c1cccc(-c2ccc([C@H]3C[C@]4(C)C(=O)CC[C@H]4[C@@H]4CCC5=CC(=O)CCC5=C43)cc2)c1 [Compound 2s]
Assigned label: T
--
Compound: CN(C)c1ccc([C@H]2C[C@]3(C)C(=O)CC[C@H]3[C@@H]3CCC4=CC(=O)CCC4=C32)cc1 [Compound 1b]
Assigned label: T
--
Compound: C[C@]12C[C@H](c3ccc(C4CC4)cc3)C3=C4CCC(=O)C=C4CC[C@H]3[C@@H]1CCC2=O [Compound 1g]
Assigned label: T
--
Compound: C[C@]12C[C@H](c3ccccc3)C3=C4CCC(=O)C=C4CC[C@H]3[C@@H]1CCC2=O [Compound 1c, 11β-Phenylestra-4,9-dien-3,17-dione]
Assigned label: F
--
Compound: C[C@]12C[C@H](c3ccc(-c4ccccc4)cc3)C3=C4CCC(=O)C=C4CC[C@H]3[C@@H]1CCC2=O [Compound 1a]
Assigned label: T
